Tested on: HT-29
Assay: Cytotoxicity against human HT-29 cells assessed as reduction in cell viability incubated for 24 hrs by MTT assay
Assay type: functional, cell-based
Settings: HT-29, 24 h
Assign IC50 to each entry below.
Numbers only, in nM.

Known results for compounds:
compound: CCC1=[N+]2N=C(c3ccccc3)C(=O)O[B-]2([C@H](CC(C)C)NC(=O)[C@@H](Cc2ccccc2)NC(=O)c2cnccn2)Oc2cc(OC)ccc21 (stereo partly drawn)
IC50, nM: 19.5
//
compound: CC(C)C[C@H](NC(=O)[C@H](Cc1ccccc1)NC(=O)c1cnccn1)B(O)O
IC50, nM: 3.2

# input for lookup
Inquiry: State its IC50: COc1ccc2c(c1)O[B-]1([C@H](CC(C)C)NC(=O)[C@@H](Cc3ccccc3)NC(=O)c3cnccn3)OC(=O)C(c3ccccc3)=N[N+]1=C2c1ccccc1 (stereo partly drawn)
Reply text: 450
